Tested on: ATP;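 note: ATP exposure 15 min at 22 °C before imaging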
Experiment: switch fluorescence ratio, 500 uM ATP over buffer (Cy3 cluster intensity, sum of 5 cycles each) (fold (ratio)); higher = stronger signal-on switching upon ATP binding; sequences stand for … in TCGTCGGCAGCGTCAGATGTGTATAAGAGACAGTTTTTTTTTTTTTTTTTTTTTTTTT…TC
Conditions: aptamer strand: ATP DNA aptamer (quencher-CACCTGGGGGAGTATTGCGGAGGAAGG + anchor), 100 nM annealed; ATP concentration: 500 uM
// reported switch fluorescence ratio for each item listed
outcome-measure: switch fluorescence ratio

[[record]]
sequence_string = "GGGTGAGTAG"
target_desc = "ATP"
recorded_result = 1.02

[[record]]
sequence_string = "TGGCGCCGAT"
target_desc = "ATP"
recorded_result = 0.961

[[record]]
sequence_string = "GGGGTAGTG"
target_desc = "ATP"
recorded_result = 1.03

[[record]]
sequence_string = "AAAGTTAAGT"
target_desc = "ATP"
recorded_result = 0.976

[[record]]
sequence_string = "GCTTATATAT"
target_desc = "ATP"
recorded_result = 0.985

[[record]]
sequence_string = "CATTTGTGGC"
target_desc = "ATP"
recorded_result = 0.961

[[record]]
sequence_string = "GAAAAAGGCC"
target_desc = "ATP"
recorded_result = 1.02

[[record]]
sequence_string = "AGGGCTGCCT"
target_desc = "ATP"
recorded_result = 1.05

[[record]]
sequence_string = "TAACCCTGAA"
target_desc = "ATP"
recorded_result = 0.984

[[record]]
sequence_string = "TTTGAGTGGC"
target_desc = "ATP"
recorded_result = 0.969

[[record]]
sequence_string = "GGATTTTGGC"
target_desc = "ATP"
recorded_result = 0.99

[[record]]
sequence_string = "GGTTGTTTTT"
target_desc = "ATP"
recorded_result = 1.01

[[record]]
sequence_string = "CGTATTGCCA"
target_desc = "ATP"
recorded_result = 1

[[record]]
sequence_string = "TAAGCTTATG"
target_desc = "ATP"
recorded_result = 0.985

[[record]]
sequence_string = "TAAGGGTTAC"
target_desc = "ATP"
recorded_result = 0.996

[[record]]
sequence_string = "TATGGATTTT"
target_desc = "ATP"
recorded_result = 0.987

[[record]]
sequence_string = "GGTATAGGTC"
target_desc = "ATP"
recorded_result = 1.05

[[record]]
sequence_string = "GCTTGTTTTT"
target_desc = "ATP"
recorded_result = 0.997

[[record]]
sequence_string = "GTGATAAATG"
target_desc = "ATP"
recorded_result = 0.956

[[record]]
sequence_string = "CTCTTGTTTT"
target_desc = "ATP"
recorded_result = 0.988

[[record]]
sequence_string = "AATGTTCGTT"
target_desc = "ATP"
recorded_result = 1.01

[[record]]
sequence_string = "GGTGTGCCAA"
target_desc = "ATP"
recorded_result = 1

[[record]]
sequence_string = "GGGCTGTTGC"
target_desc = "ATP"
recorded_result = 1.08

[[record]]
sequence_string = "AGGATACGGT"
target_desc = "ATP"
recorded_result = 1.01

[[record]]
sequence_string = "GTTTAAGTTA"
target_desc = "ATP"
recorded_result = 0.991

[[record]]
sequence_string = "CAGATGTTTT"
target_desc = "ATP"
recorded_result = 0.987

[[record]]
sequence_string = "CGGCGGGGTG"
target_desc = "ATP"
recorded_result = 1.04

[[record]]
sequence_string = "TCAAAATTTC"
target_desc = "ATP"
recorded_result = 1.01

[[record]]
sequence_string = "TTTGAACTTG"
target_desc = "ATP"
recorded_result = 1.01

[[record]]
sequence_string = "CACGGTGCGG"
target_desc = "ATP"
recorded_result = 1.01

[[record]]
sequence_string = "GTTGACCGGT"
target_desc = "ATP"
recorded_result = 1

[[record]]
sequence_string = "GGAGCTGGGA"
target_desc = "ATP"
recorded_result = 1.01

[[record]]
sequence_string = "TCGGATCCAA"
target_desc = "ATP"
recorded_result = 1.05

[[record]]
sequence_string = "TCTTAGCCCT"
target_desc = "ATP"
recorded_result = 1.01

[[record]]
sequence_string = "AGGCGTATTT"
target_desc = "ATP"
recorded_result = 0.999

[[record]]
sequence_string = "CTCCTTTATT"
target_desc = "ATP"
recorded_result = 1.04

[[record]]
sequence_string = "CGGGTGCGTG"
target_desc = "ATP"
recorded_result = 0.981

[[record]]
sequence_string = "AGGGTACTGC"
target_desc = "ATP"
recorded_result = 1.02

[[record]]
sequence_string = "TGGGTTTACG"
target_desc = "ATP"
recorded_result = 1.03

[[record]]
sequence_string = "ATCTTATTTG"
target_desc = "ATP"
recorded_result = 1.01

[[record]]
sequence_string = "GCGGGCGCCC"
target_desc = "ATP"
recorded_result = 1.01

[[record]]
sequence_string = "GGGAAGAGAG"
target_desc = "ATP"
recorded_result = 0.985

[[record]]
sequence_string = "GGACGGGGGT"
target_desc = "ATP"
recorded_result = 1.01


Measured values drawn from the supplement of paper PMC10126150 for this set.
